- target desc: M4 muscarinic receptor (Homo sapiens, UniProt P08173)
- Construct: expressed in transfected cells; host or cells: CHO (M4-CHO)
- Sequence (P08173 1-479): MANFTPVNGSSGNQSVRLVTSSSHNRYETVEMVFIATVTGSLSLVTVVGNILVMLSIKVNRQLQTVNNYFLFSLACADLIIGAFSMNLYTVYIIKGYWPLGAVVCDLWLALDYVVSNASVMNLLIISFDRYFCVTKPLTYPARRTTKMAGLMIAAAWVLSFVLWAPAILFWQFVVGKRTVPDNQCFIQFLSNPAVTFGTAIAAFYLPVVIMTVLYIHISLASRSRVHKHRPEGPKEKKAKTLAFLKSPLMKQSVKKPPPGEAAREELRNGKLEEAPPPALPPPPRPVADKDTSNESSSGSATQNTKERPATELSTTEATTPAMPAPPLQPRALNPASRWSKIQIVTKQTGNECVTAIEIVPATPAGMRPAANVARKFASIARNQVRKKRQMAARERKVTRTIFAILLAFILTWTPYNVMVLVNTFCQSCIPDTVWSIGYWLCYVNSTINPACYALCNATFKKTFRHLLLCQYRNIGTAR
- protocol notes: Functional mobilization of intracellular calcium (FLIPR) in CHO cells expressing M4
- Format: cell-based
- particulars: CHO; 100% = maximum response obtained with the Carbachol control; read-out: M4 Efficacy
The following compounds are listed with their measured Emax values.

Prompt: Param item = CCOCCC(=O)N[C@@H]1CCC2(CCN(CCC(C)(C)C)CC2)c2ccccc21 ; retrieve measured Emax.
Response: 25 to 100%

---

- target desc: M4 muscarinic receptor (Homo sapiens, UniProt P08173)
- Construct: expressed in transfected cells; host or cells: CHO (M4-CHO)
- protocol notes: Functional mobilization of intracellular calcium (FLIPR) in CHO cells expressing M4
- Format: cell-based
- particulars: CHO; 100% efficacy = maximum response obtained with the Carbachol control
The following molecules are listed with their measured Emax values.

Worked set:
Cc1cc(C(=O)N[C@@H]2CCC3(CCN(CCC(C)(C)C)CC3)c3ccccc32)nn1C [compound 216]    25 to 100%
CC(=O)N[C@H]1CC2(CCN(CCC(C)(C)C)CC2)c2ccccc21 [compound 244]    25 to 100%
CCC(=O)N[C@H]1CC2(CCN(CCC(C)(C)C)CC2)c2ccccc21 [compound 230]    25 to 100%

Prompt: Please look up its Emax: CC(C)(C)CCN1CCC2(CC1)C[C@H](NC(=O)C1CCCC1)c1ccccc12 [compound 225]
Response: < 25%

Prompt: Query (molecule): CC(=O)N[C@H]1CC2(CCN(C(C)CC(C)C)CC2)c2ccccc21 (stereo partly shown) [compound 236] ; field requested: Emax
Response: < 25%

Prompt: What value of Emax has been recorded for this entry: CC(=O)N1CCC(C(=O)N[C@H]2CCC3(CCN(CCC(C)(C)C)CC3)c3ccccc32)CC1 [compound 191]
Response: 25 to 100%

Prompt: Report Emax for CC(=O)N[C@H]1CCC2(CCN(C(C)CC(C)(C)C)CC2)c2ccccc21 (stereo partly shown) [compound 204] please.
Response: 25 to 100%

---

- target desc: M1 muscarinic receptor (Homo sapiens)
- Construct: expressed in transfected cells; host or cells: CHO (M1-CHO)
- Sequence (P11229 whole entry): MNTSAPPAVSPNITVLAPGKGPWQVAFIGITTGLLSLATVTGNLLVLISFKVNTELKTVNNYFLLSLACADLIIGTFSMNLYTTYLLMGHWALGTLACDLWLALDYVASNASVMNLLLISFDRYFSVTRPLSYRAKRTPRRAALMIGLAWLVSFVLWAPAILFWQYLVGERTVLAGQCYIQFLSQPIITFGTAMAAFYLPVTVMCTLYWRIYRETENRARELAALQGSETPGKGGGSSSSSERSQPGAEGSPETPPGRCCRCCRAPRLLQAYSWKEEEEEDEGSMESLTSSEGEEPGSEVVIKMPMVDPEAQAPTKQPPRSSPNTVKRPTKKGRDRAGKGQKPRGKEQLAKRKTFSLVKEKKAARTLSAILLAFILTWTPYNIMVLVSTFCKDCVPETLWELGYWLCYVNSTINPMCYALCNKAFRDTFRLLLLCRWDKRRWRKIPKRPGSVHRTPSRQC
- protocol notes: Functional mobilization of intracellular calcium (FLIPR) in CHO cells expressing M1
- Type: cell-based
- particulars: CHO; 100% = maximum response obtained with the Carbachol control; read-out: M1 Efficacy
endpoint label: Emax

In the examples that follow, each entry is paired with its recorded Emax.
CC(C)(C)CCN1CCC2(CC[C@@H](N3CCCCC3=O)c3ccc(F)cc32)CC1    < 25%
CCCC(CCC)N1CCC2(CC[C@H](NC(=O)C3CC3)c3ccccc32)CC1    < 25%
C[C@@H](C(=O)N[C@@H]1CCC2(CCN(CCC(C)(C)C)CC2)c2cc(F)ccc21)N1CCCC1=O    25 to 100%
CC(C)(C)CCN1CCC2(CC1)CC(F)(F)C(=O)c1ccccc12    25 to 100%

From here, focus on the item given below.
Prompt: For the record CCN(C(=O)C1CCC(=O)C1)[C@H]1CCC2(CCN(CCC(C)(C)C)CC2)c2ccccc21 (stereo partly shown) , what value of Emax is listed for M1 muscarinic receptor (Homo sapiens)?
Response: 25 to 100%

---

- target desc: M4 muscarinic receptor (Homo sapiens, UniProt P08173)
- Construct: expressed in transfected cells; host or cells: CHO (M4-CHO)
- Sequence (P08173 1-479): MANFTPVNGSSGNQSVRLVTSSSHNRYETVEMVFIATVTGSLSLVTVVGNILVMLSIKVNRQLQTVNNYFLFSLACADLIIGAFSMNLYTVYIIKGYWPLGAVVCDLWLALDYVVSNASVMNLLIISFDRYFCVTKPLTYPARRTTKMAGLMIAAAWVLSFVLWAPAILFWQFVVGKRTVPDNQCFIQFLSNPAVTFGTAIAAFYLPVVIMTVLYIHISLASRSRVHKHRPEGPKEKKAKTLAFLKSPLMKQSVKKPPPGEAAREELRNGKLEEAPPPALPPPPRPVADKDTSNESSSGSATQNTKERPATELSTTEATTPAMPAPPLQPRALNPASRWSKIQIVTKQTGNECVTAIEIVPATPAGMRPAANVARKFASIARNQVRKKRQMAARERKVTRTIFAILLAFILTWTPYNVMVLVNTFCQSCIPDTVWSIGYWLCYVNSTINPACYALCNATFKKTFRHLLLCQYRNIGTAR
- protocol notes: Functional mobilization of intracellular calcium (FLIPR) in CHO cells expressing M4
- Type: cell-based
- particulars: CHO; 100% efficacy = maximum response obtained with the Carbachol control
endpoint label: Emax

CC(C)(C)CCN1CCC2(CC[C@@H](NC(=O)C3CCCO3)c3ccccc32)CC1 (stereo partly drawn)    25 to 100%
C=CCC(C)(C)CN1CCC2(CC1)C[C@H](NC(C)=O)c1ccccc12    < 25%
CC(=O)NC1CCC2(CCN(C(=O)OC(C)(C)C)CC2)c2ccccc21 (stereo not drawn)    < 25%
CC(=O)N[C@@H]1CCC2(CCN(C(=O)OC(C)(C)C)CC2)c2ccccc21    < 25%
COCCC(=O)N[C@H]1CCC2(CCN(CCC(C)(C)C)CC2)c2cc(F)ccc21    25 to 100%
CCN(C(C)=O)[C@H]1CCC2(CCN(CCC(C)C)CC2)c2ccccc21    25 to 100%
CC(=O)N[C@H]1CC2(CCN(C(=O)OC(C)(C)C)CC2)c2ccc(C)cc21    < 25%
CC(=O)N[C@H]1CC2(CCN(CCC(C)(C)C)CC2)c2ccc(C)cc21    25 to 100%

Prompt: Bench note: what Emax did CC(=O)NCC(=O)N[C@@H]1CCC2(CCN(CCC(C)(C)C)CC2)c2cc(F)ccc21 show?
Response: 25 to 100%

Prompt: Requested field: Emax. Item: CC(C)(C)CCN1CCC2(CC[C@H](NC(=O)C3CCOCC3)c3ccc(F)cc32)CC1
Response: 25 to 100%

Prompt: // query Emax value for entry CC(C)CCN1CCC2(CC1)C[C@H](NC(=O)c1ccoc1)c1ccccc12
Response: < 25%

Prompt: Return reported Emax; argument: CC(=O)N[C@H]1CCC2(CCN(C(=O)OC(C)(C)C)CC2)c2ccccc21
Response: < 25%

Prompt: Name the recorded Emax for CC(=O)N[C@H]1CC2(CCN(CC(=O)N(C)C)CC2)c2ccccc21 .
Response: < 25%

Prompt: For the compound CCC(=O)N[C@H]1CC2(CCN(CCC(C)C)CC2)c2ccccc21 , what Emax is on record?
Response: < 25%

Prompt: Fill in the blank: the reported Emax of CC(C)COC(=O)N(C)[C@H]1CCC2(CCN(CCC(C)(C)C)CC2)c2ccccc21 is ____.
Response: 25 to 100%

Prompt: Can you share its Emax? I mean this compound: Cn1nccc1C(=O)N[C@H]1CCC2(CCN(CCC(C)(C)C)CC2)c2ccccc21
Response: 25 to 100%

Prompt: What measured Emax goes with CCOc1ccc(CN2CCC3(CC[C@H](NC(C)=O)c4ccccc43)CC2)cc1 ?
Response: 25 to 100%

Prompt: Return reported Emax; argument: CC(C)(C)CCN1CCC2(CC[C@H](NC(=O)[C@H]3CCC(=O)N3)c3ccc(F)cc32)CC1
Response: 25 to 100%

Prompt: I am curious: what Emax value has been reported for COC(=O)CN1CCC2(CC1)C[C@H](NC(C)=O)c1ccccc12 ?
Response: < 25%

Prompt: Which Emax is listed for CC(=O)N[C@H]1CC2(CCN(CC(=O)NCC(C)C)CC2)c2ccccc21 ?
Response: < 25%

Prompt: Which measured Emax value corresponds to CC(C)(C)CCN1CCC2(CC[C@H](NC(=O)CCCN3CCCC3=O)c3ccccc32)CC1 ?
Response: 25 to 100%

Prompt: Could you tell me which Emax is on file for CC(=O)N[C@@H]1CCC2(CCN(CCC(C)(C)C)CC2)c2cc(F)ccc21 ?
Response: 25 to 100%

Prompt: Given the entry CCN(C(=O)Cc1ccncc1)[C@H]1CCC2(CCN(CCC(C)(C)C)CC2)c2ccccc21 , report its measured Emax.
Response: 25 to 100%
